- tested_target: Voltage-gated inwardly rectifying potassium channel KCNH2 (Homo sapiens, UniProt Q12809)
- Sequence (Q12809 whole entry): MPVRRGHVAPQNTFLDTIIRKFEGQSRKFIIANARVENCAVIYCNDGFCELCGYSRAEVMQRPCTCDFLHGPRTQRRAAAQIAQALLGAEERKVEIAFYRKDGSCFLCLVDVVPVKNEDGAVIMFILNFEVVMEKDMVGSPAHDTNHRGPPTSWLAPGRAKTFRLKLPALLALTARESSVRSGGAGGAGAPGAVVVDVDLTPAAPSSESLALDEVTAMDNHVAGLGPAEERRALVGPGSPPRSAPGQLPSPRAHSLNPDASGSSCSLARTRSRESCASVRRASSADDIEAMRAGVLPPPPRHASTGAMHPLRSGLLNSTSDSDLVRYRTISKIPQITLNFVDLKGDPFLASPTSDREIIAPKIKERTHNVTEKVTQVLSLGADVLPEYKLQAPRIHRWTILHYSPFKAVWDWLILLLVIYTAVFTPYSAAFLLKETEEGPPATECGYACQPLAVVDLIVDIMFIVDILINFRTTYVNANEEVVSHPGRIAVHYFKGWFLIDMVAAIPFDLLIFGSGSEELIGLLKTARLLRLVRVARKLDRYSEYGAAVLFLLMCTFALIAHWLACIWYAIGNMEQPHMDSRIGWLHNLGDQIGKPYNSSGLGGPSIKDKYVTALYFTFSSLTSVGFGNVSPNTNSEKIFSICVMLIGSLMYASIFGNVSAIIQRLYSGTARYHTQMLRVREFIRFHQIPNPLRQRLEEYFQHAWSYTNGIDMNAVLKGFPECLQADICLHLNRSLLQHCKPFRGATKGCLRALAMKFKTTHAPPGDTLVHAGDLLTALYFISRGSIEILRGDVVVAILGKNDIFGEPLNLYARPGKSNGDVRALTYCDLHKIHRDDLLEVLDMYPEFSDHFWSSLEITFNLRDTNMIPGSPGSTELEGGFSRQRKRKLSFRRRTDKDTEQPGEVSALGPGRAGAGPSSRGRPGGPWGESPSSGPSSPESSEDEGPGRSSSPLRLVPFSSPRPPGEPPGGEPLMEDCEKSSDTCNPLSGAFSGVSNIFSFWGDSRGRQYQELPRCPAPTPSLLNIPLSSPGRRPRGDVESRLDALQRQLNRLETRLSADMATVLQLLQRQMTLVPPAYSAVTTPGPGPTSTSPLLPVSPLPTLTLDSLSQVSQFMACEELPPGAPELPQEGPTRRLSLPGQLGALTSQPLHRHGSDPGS
- procedure_summary: Inhibition of human ERG by patch-clamp technique
pIC50: −log10 of the molar value.
Each entry gets N if its pIC50 stays under 5, and Y if its pIC50 is 5 or above.

Study these solved cases before continuing.
compound="COc1ccc(CCN2C(=O)N(NS(C)(=O)=O)CC2c2ccc(C)c(C)c2)cc1 (centres undefined)" assigned_category=N
compound=COc1ccc(CCCN2C(=O)N(NS(C)(=O)=O)C[C@H]2c2ccc(OC)cc2)cc1 assigned_category=N
compound=COc1ccc(CCN2C(=O)N(NS(C)(=O)=O)C[C@H]2c2ccc(OC)cc2)cc1 assigned_category=N
compound=COc1ccc([C@H]2CN(NS(C)(=O)=O)C(=O)N2CCc2ccc(OC(F)(F)F)cc2)cc1 assigned_category=Y
compound=COc1ccc(CCCN2C(=O)N(NS(C)(=O)=O)C[C@@H]2c2ccc(OC)cc2)cc1 assigned_category=N

Is it the case that `COc1ccc(CCN2C(=O)N(NS(=O)(=O)CC#N)C[C@@H]2c2ccc(OC)cc2)cc1` has pIC50 reaching or exceeding 5?
N

Form field: pIC50 at least 5? Entry: `COc1ccc(CCN2C(=O)N(NS(=O)(=O)Cc3ccccc3)C[C@@H]2c2ccc(OC)cc2)cc1`
Y

Textbook exercise: given the entry `COc1ccc(CCN2C(=O)N(NS(=O)(=O)CF)C[C@@H]2c2ccc(OC)cc2)cc1` , state whether its pIC50 is greater than or equal to 5.
N

====

- procedure_summary: Permeability from apical to basolateral side in human Caco-2 cells at pH 7.4
- Format: ADME, cell-based
- stated_conditions: Caco-2, pH 7.4, read-out: permeability
measured_quantity: Papp A→B (×10⁻⁶ cm/s)
Give the value in ×10⁻⁶ cm/s but do not write ×10⁻⁶ cm/s after it.

Find the recorded Papp A→B belonging to `COc1ccc(CCN2C(=O)N(NS(C)(=O)=O)C[C@H]2c2ccc(OC)cc2)cc1` and report it.
40

====

- procedure_summary: Plasma clearance in Beagle dog at 3 mg/kg, iv
- Format: ADME, organism-based, Canis lupus familiaris
- Design: dose 3 mg/kg, route intravenous
measured_quantity: clearance (mL/min/kg)
Number only, in mL/min/kg; omit the unit.

Give the measured clearance of `COc1ccc(CCN2C(=O)N(NS(C)(=O)=O)C[C@H]2c2ccc(OC)cc2)cc1` .
23

====

- tested_target: Voltage-dependent L-type calcium channel subunit alpha-1C (Homo sapiens)
- Sequence (Q13936 whole entry): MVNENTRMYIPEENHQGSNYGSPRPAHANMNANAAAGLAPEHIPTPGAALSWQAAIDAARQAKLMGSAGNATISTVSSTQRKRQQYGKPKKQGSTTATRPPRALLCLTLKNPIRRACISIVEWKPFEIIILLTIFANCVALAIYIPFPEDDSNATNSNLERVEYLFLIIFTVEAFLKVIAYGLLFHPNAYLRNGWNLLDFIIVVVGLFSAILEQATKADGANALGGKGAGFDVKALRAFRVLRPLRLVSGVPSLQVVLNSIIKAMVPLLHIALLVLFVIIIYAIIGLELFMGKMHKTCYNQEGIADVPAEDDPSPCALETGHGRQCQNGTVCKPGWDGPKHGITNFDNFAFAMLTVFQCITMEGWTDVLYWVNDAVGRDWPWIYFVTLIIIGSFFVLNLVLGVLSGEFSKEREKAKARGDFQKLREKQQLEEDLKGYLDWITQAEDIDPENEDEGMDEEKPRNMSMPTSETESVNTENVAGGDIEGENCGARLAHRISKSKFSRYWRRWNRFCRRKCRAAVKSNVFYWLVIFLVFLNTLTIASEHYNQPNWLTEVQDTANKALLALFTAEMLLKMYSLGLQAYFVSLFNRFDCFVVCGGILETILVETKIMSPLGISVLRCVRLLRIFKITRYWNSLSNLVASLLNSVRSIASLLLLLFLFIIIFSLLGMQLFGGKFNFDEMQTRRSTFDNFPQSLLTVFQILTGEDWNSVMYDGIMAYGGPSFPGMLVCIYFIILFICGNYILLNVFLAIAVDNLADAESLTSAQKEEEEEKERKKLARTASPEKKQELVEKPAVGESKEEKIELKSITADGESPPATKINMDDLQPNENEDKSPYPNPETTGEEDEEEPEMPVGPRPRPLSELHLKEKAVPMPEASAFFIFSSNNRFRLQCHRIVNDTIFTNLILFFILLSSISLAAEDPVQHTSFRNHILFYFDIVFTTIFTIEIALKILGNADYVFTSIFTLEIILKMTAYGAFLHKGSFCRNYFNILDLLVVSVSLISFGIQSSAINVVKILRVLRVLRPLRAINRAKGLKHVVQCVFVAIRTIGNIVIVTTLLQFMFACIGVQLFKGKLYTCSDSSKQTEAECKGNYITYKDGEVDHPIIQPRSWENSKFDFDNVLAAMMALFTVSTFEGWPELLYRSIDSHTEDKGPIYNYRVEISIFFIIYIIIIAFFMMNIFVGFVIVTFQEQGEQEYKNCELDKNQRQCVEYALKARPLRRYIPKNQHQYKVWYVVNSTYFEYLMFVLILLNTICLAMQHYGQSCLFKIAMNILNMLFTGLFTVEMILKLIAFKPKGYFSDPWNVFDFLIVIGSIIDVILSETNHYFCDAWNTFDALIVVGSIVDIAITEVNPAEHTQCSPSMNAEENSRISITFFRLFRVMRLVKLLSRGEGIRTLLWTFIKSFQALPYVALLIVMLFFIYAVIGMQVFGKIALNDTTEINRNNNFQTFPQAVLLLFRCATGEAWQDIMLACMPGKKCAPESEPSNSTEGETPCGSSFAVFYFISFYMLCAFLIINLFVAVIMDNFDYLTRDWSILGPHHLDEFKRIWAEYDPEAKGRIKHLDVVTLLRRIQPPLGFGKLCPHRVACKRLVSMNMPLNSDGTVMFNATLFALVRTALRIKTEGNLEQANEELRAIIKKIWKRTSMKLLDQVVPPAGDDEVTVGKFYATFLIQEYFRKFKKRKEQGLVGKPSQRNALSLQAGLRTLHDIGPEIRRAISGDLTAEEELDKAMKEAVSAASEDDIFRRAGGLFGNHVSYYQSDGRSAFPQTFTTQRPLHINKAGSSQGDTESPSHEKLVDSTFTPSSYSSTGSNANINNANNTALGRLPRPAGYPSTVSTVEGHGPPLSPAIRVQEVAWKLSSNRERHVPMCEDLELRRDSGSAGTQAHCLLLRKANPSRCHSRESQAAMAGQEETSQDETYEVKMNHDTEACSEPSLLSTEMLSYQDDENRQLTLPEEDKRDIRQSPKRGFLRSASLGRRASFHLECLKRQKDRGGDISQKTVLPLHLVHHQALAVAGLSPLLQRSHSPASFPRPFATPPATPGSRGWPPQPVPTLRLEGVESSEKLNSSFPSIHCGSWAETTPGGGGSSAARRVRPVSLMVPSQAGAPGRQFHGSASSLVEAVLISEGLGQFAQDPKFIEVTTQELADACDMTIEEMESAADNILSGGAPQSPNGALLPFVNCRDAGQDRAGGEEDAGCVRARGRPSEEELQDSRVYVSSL
- procedure_summary: Inhibition of Cav1.2 expressed in HEK cells by patch-clamp technique
pIC50: −log10 of the molar value.
measured_quantity: pIC50

For the compound `COc1ccc(CCN2C(=O)N(NS(C)(=O)=O)C[C@H]2c2ccc(OC)cc2)cc1` , what pIC50 is on record?
< 4.52

====

Below is a list of entries, each paired with its recorded half-life value.
- procedure_summary: Metabolic stability in human liver microsomes assessed as half life
- Assay type: ADME, Microsome
Express your answer in min, writing the number without its unit.

Some compounds with known half-life results, for comparison:
compound=COc1ccc(CCCN2C(=O)N(NS(C)(=O)=O)C[C@@H]2c2ccc(OC)cc2)cc1 measured_quantity=half-life observed=29
compound=COc1ccc(CCN2C(=O)N(NS(C)(=O)=O)C[C@@H]2c2ccc(OC)cc2)cc1 measured_quantity=half-life observed=16
compound="COc1ccc(CCN2C(=O)N(NS(C)(=O)=O)CC2c2ccc(C(F)(F)F)cc2)cc1 (configuration not stated)" measured_quantity=half-life observed=30
compound="COc1ccc(CCN2C(=O)N(NS(C)(=O)=O)CC2c2ccc(Cl)cc2)cc1 (configuration not stated)" measured_quantity=half-life observed=30
compound=COc1ccc(CCN2C(=O)N(NS(=O)(=O)CC#N)C[C@@H]2c2ccc(OC)cc2)cc1 measured_quantity=half-life observed=21

half-life lookup needed for COc1ccc(CCN2C(=O)N(NS(C)(=O)=O)CC2c2ccc(OC(C)C)cc2)cc1 (configuration not stated) , thanks.
30

Suppose we examine the compound `CCOc1ccc(CCN2C(=O)N(NS(C)(=O)=O)C[C@@H]2c2ccc(OC)cc2)cc1` ; what half-life value has been reported?
17

Consider the compound COc1ccc(CCN2C(=O)N(NS(C)(=O)=O)CC2c2ccc(C)c(C)c2)cc1 (configuration not stated) and give its measured half-life.
13

Recorded half-life for COCCOc1ccc(C2CN(NS(C)(=O)=O)C(=O)N2CCc2ccc(OC)cc2)cc1 (configuration not stated) , please?
30

Can you look up the measured half-life of COc1ccc(CCN2C(=O)N(NS(C)(=O)=O)CC2c2ccc(C3CC3)cc2)cc1 (configuration not stated) for me?
30

What value of half-life has been recorded for this entry: `COc1ccc(CCN2C(=O)N(NS(=O)(=O)Cc3cccnc3)C[C@@H]2c2ccc(OC)cc2)cc1`
3
